Taken from paper PMC9964319.

Consider the following molecules; for each one, report its MIC.
- Test system: S. aureus 272123 (MRSA)
- assay_summary: Antibacterial assay, MIC in 96-well plates at different pH
- Format: cell-based
- experimental_context: Staphylococcus aureus, 24 h, pH 8, after one day, read-out: MIC
- Protocol: The antibacterial effect was studied in two Gram-positive and in two Gram-negative strains. The Gram-positive S. aureus ATCC 25923 (ATCC, Manassas, VA, USA) is a methicillin-susceptible reference bacterial strain, while S. aureus 272123 is a clinical isolate and resistant to methicillin and ofloxacin (MRSA), which was given by Prof. […] The minimum inhibitory concentrations (MICs) of the compounds were determined in 96-well plates based on the Clinical and Laboratory Standard Institute guidelines. […]

Recall the reported MIC of Clc1ccc(COC(Cn2ccnc2)c2ccc(Cl)cc2Cl)cc1 (stereo not shown) [econ, econazole, reference compound] on S. aureus 272123 (MRSA) and write it down.
3.12 µM

Give MIC for Cn1ccnc1 [mim, 1-methylimidazole, reference compound] tested on S. aureus 272123 (MRSA).
> 100 µM

Print S. aureus 272123 (MRSA) MIC for O=P(O)(O)C(O)(Cn1ccnc1)P(=O)(O)O [zol, zoledronic acid, reference compound] .
> 100 µM

Fetch value of MIC on S. aureus 272123 (MRSA) for c1cnc2c(c1)ccc1cccnc12 [phen, 1,10-phenanthroline, reference compound] .
> 100 µM
